Data origin: patent US8987473B2

Entries and their log10 of IC50 values follow.
# SYSTEM_TESTED: human URAT1 (Homo sapiens (Human))
# ASSAY_PROTOCOL: Test for uric acid transport inhibition using human URAT1 expression cell
# REPORTED_CONDITIONS: human URAT1 stable expression CHO cell; 14C-labeled uric acid 38 μM final concentration; incorporation at room temperature for 5 minutes; 100% window defined with benzbromarone 100 μM; read-out: URAT1 Inhibitory Activity (IC50)
MEASURED_ENDPOINT: log10 of IC50 (log10 of the value in µM)

{"columns": ["COMPOUND", "log10 of IC50"],
 "data": [
  ["Cc1nn(Cc2c(Cl)cccc2Cl)c2cc(C(=O)O)cnc12", -0.44],
  ["Cc1nn(Cc2c(Cl)cccc2Cl)c2cc(CC(=O)O)ccc12", -1.74],
  ["CCc1nn(Cc2c(C)cccc2C)c2cc(CC(=O)O)ccc12", -1.30],
  ["Cc1cccc(C)c1CN1CC(C)c2ccc(CC(=O)O)cc21 (stereo not shown)", -1.62],
  ["Cc1nn(Cc2c(Cl)cccc2Cl)c2cc(CCC(N)=O)ccc12", -0.73],
  ["Cc1cccc(C)c1Cn1nc(C)c2ccc(CCC(=O)O)cc21", -1.39],
  ["Cc1ccc(C)c(Cn2nc(C)c3ncc(-c4nnn[nH]4)cc32)c1", -0.95],
  ["Cc1nn(Cc2c(F)cccc2Cl)c2cc(CC(=O)O)ccc12", -1.00],
  ["Cc1cccc(Cl)c1Cn1nc(C)c2ncc(-c3nnn[nH]3)cc21", -0.91],
  ["Cc1ccc(C)c(Cn2cc(C)c3ccc(CC(=O)O)cc32)c1", -1.20],
  ["Cc1nn(Cc2c(Cl)cccc2C2CC2)c2cc(-c3nnn[nH]3)cnc12", -1.26],
  ["Cc1cn(Cc2cccc(Cl)c2Cl)c2cc(CC(=O)O)ccc12", -1.28],
  ["CCc1nn(Cc2c(Cl)cccc2Cl)c2cc(C(=O)O)cnc12", -1.10],
  ["Cc1nn(Cc2c(Cl)cccc2Cl)c2cc(C(F)(F)C(=O)O)ccc12", -1.82],
  ["Cc1cn(Cc2c(F)cccc2Cl)c2cc(CC(=O)O)ccc12", -1.55],
  ["CCc1cn(Cc2c(C)cccc2C)c2cc(C(=O)O)ccc12", -1.37],
  ["Cc1cn(Cc2c(Cl)cccc2Cl)c2cc(CCC(=O)O)ccc12", -1.64],
  ["O=C(O)c1cnc2c(Cl)nn(Cc3c(Cl)cccc3Cl)c2c1", -0.79],
  ["Cc1nn(Cc2c(Cl)cccc2Cl)c2cc(Cc3nnn[nH]3)ccc12", -1.89]
]}

====

# SYSTEM_TESTED: human URAT1 (Homo sapiens (Human), UniProt Q96S37)
# Sequence (Q96S37 whole entry): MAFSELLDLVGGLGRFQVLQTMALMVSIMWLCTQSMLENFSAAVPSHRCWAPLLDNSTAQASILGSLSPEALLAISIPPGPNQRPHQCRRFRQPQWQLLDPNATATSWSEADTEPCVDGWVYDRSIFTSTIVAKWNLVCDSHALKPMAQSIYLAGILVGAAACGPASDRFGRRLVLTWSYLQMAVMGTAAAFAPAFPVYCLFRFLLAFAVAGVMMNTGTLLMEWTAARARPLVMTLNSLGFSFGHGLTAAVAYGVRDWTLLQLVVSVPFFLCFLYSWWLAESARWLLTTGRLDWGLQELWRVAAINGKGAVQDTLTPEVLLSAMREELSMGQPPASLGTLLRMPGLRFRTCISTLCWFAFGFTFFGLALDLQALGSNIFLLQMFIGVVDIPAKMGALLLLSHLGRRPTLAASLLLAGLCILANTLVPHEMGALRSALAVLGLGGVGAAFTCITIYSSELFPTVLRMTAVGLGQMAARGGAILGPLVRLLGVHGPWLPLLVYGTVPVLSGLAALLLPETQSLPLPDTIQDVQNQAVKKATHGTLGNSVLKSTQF
# ASSAY_PROTOCOL: Test for uric acid transport inhibition using human URAT1 expression cell
# REPORTED_CONDITIONS: human URAT1 stable expression CHO cell; 14C-labeled uric acid 38 μM final concentration; incorporation at room temperature for 5 minutes; 100% window defined with benzbromarone 100 μM; read-out: URAT1 Inhibitory Activity (IC50)
Entries and their log10(IC50) values follow.
MEASURED_ENDPOINT: log10(IC50) (log10 of the value in nM)

{"columns": ["COMPOUND", "SYSTEM_TESTED", "log10(IC50)"],
 "data": [
  ["Cc1nn(Cc2c(Cl)cccc2Cl)c2cc(CCCC(=O)O)ccc12", "human URAT1 (Homo sapiens (Human), UniProt Q96S37)", 1.20],
  ["Cc1cc(C)c(Cn2nc(C)c3ccc(CC(=O)O)cc32)c(C)c1", "human URAT1 (Homo sapiens (Human), UniProt Q96S37)", 1.97],
  ["Cc1nn(Cc2cccc3cccnc23)c2cc(CC(=O)O)ccc12", "human URAT1 (Homo sapiens (Human), UniProt Q96S37)", 2.60],
  ["Cc1nn(Cc2c(Cl)cccc2Cl)c2cc(Cc3n[nH]c(=S)o3)ccc12", "human URAT1 (Homo sapiens (Human), UniProt Q96S37)", 1.00],
  ["Cc1cccc(Cl)c1Cn1nc(Cl)c2ncc(-c3nnn[nH]3)cc21", "human URAT1 (Homo sapiens (Human), UniProt Q96S37)", 2.02],
  ["Cc1nn(Cc2c(Cl)cccc2C#N)c2cc(CCC(=O)O)ccc12", "human URAT1 (Homo sapiens (Human), UniProt Q96S37)", 1.86],
  ["Cc1nn(Cc2csc3ccc(Cl)cc23)c2cc(CCC(=O)O)ccc12", "human URAT1 (Homo sapiens (Human), UniProt Q96S37)", 1.49],
  ["Cc1nn(Cc2c(Cl)cccc2Cl)c2cc(CCC(=O)O)ccc12", "human URAT1 (Homo sapiens (Human), UniProt Q96S37)", 1.00],
  ["CCc1nn(Cc2c(Cl)cccc2Cl)c2cc(/C=C/C(=O)O)ccc12", "human URAT1 (Homo sapiens (Human), UniProt Q96S37)", 1.72],
  ["Clc1cccc(Cl)c1Cn1nc(Cl)c2ncc(-c3nnn[nH]3)cc21", "human URAT1 (Homo sapiens (Human), UniProt Q96S37)", 2.21],
  ["Cc1nn(Cc2c(Cl)cccc2Cl)c2nc(Cc3nnn[nH]3)ccc12", "human URAT1 (Homo sapiens (Human), UniProt Q96S37)", 2.26],
  ["Cc1cccc(C)c1CN1CC(C)(C)c2ccc(CC(=O)O)cc21", "human URAT1 (Homo sapiens (Human), UniProt Q96S37)", 1.26],
  ["Cc1nn(Cc2c(Cl)cccc2Cl)c2cc(OCC(=O)O)ccc12", "human URAT1 (Homo sapiens (Human), UniProt Q96S37)", 2.96],
  ["Cc1nn(Cc2cccc3ccccc23)c2cc(CC(=O)O)ccc12", "human URAT1 (Homo sapiens (Human), UniProt Q96S37)", 1.89],
  ["Cc1nn(Cc2c(Cl)cccc2Cl)c2cc(-c3nnn[nH]3)cnc12", "human URAT1 (Homo sapiens (Human), UniProt Q96S37)", 2.64],
  ["Cc1nn(Cc2c(Cl)cccc2Cl)c2cc(CS(=O)(=O)O)ccc12", "human URAT1 (Homo sapiens (Human), UniProt Q96S37)", 2.81],
  ["Cc1cccc(C)c1CN1CCc2ccc(CC(=O)O)cc21", "human URAT1 (Homo sapiens (Human), UniProt Q96S37)", 1.89],
  ["Cc1cn(Cc2ccccc2Cl)c2cc(CC(=O)O)ccc12", "human URAT1 (Homo sapiens (Human), UniProt Q96S37)", 1.94],
  ["Cc1cccc(C)c1Cn1nc(C)c2ccc(C(=O)O)cc21", "human URAT1 (Homo sapiens (Human), UniProt Q96S37)", 1.96],
  ["Cc1cccc(C)c1Cn1c(=O)n(C(C)C)c2ccc(C(=O)O)cc21", "human URAT1 (Homo sapiens (Human), UniProt Q96S37)", 2.22],
  ["Cc1cccc(Cl)c1Cn1nc(Cl)c2ncc(C(=O)O)cc21", "human URAT1 (Homo sapiens (Human), UniProt Q96S37)", 2.17],
  ["Cc1cccc(C)c1Cn1nc(C)c2ccc(CC(=O)O)cc21", "human URAT1 (Homo sapiens (Human), UniProt Q96S37)", 1.83],
  ["CCc1nn(Cc2c(Cl)cccc2Cl)c2cc(C(=O)O)ccc12", "human URAT1 (Homo sapiens (Human), UniProt Q96S37)", 1.62],
  ["CCc1nn(Cc2c(C)cccc2Cl)c2cc(C(=O)O)cnc12", "human URAT1 (Homo sapiens (Human), UniProt Q96S37)", 1.90],
  ["Cc1cccc(C)c1Cn1nc(C(C)C)c2ccc(CC(=O)O)cc21", "human URAT1 (Homo sapiens (Human), UniProt Q96S37)", 1.88],
  ["Cc1cccc(C)c1Cn1cc(Cl)c2ccc(CC(=O)O)cc21", "human URAT1 (Homo sapiens (Human), UniProt Q96S37)", 1.48],
  ["Cc1nn(Cc2c(Cl)cccc2Cl)c2cc(Cc3n[nH]c(=O)o3)ccc12", "human URAT1 (Homo sapiens (Human), UniProt Q96S37)", 1.53],
  ["Cc1cccc(C)c1Cn1cc(C)c2ccc(C(=O)O)cc21", "human URAT1 (Homo sapiens (Human), UniProt Q96S37)", 1.66],
  ["N#Cc1nn(Cc2c(Cl)cccc2Cl)c2cc(C(=O)O)ccc12", "human URAT1 (Homo sapiens (Human), UniProt Q96S37)", 2.47],
  ["Cc1nn(Cc2cccc(Cl)c2Cl)c2cc(C(=O)O)ccc12", "human URAT1 (Homo sapiens (Human), UniProt Q96S37)", 1.96],
  ["O=C(O)Cc1ccc2c(C3CC3)nn(Cc3c(Cl)cccc3Cl)c2c1", "human URAT1 (Homo sapiens (Human), UniProt Q96S37)", 1.69],
  ["Cc1nn(Cc2cccc(Cl)c2Cl)c2cc(-c3nnn[nH]3)cnc12", "human URAT1 (Homo sapiens (Human), UniProt Q96S37)", 2.47],
  ["CCc1nn(Cc2c(Cl)cccc2Cl)c2cc(-c3nnn[nH]3)cnc12", "human URAT1 (Homo sapiens (Human), UniProt Q96S37)", 1.72],
  ["CCc1nn(Cc2c(C)cccc2C)c2cc(C(=O)O)ccc12", "human URAT1 (Homo sapiens (Human), UniProt Q96S37)", 1.54],
  ["Cc1nn(Cc2c(Cl)cccc2C#N)c2cc(CC(=O)O)ccc12", "human URAT1 (Homo sapiens (Human), UniProt Q96S37)", 2.53],
  ["CCc1nn(Cc2c(Cl)cccc2Cl)c2cc(-c3nnn[nH]3)ccc12", "human URAT1 (Homo sapiens (Human), UniProt Q96S37)", 1.72],
  ["CCc1nn(Cc2c(Cl)cccc2Cl)c2cc(CC(=O)O)ccc12", "human URAT1 (Homo sapiens (Human), UniProt Q96S37)", 1.38],
  ["Cc1nn(Cc2c(Cl)cccc2Cl)c2cc(C(O)C(=O)O)ccc12 (centres unmarked)", "human URAT1 (Homo sapiens (Human), UniProt Q96S37)", 2.76]
]}
